Source of measurements: patent US20240092922A1

molecular target: T1, chimeric (mouse and human) 4-1BB (c4-1BB) on transfected CHO cells (chimeric (mouse and human)); assay: flow cytometry on transfected CHO cells;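 also: antibodies tested at 1 µg/ml on CHO cells for 30 min at 4 °C, binding detected with FITC- or PE-labeled anti-mouse IgG Fc secondary by flow cytometry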
T1 construct: also called chi4-1BB; CHO-c4-1BB
endpoint name: binding result

29-6A5 (antibody, V domains shown, mouse antibody purified from ascites) VH: QVQLQQPGAELVRPGASVKLSCKASGYTFSSYWINWVKQRPGQGLEWIGNIYPSDSYTNYNQKFKDKATLTVDKSSSTAYMQLSSPTSDDSAVYYCTRTWEFYYDSVFDYWGQGTTLTVSS VL: DIKMTQSPSSMYASLGERVTITCKASQDINSYLSWFQQKPGKSPKTLIYRANRLVDGVPSRFSGSGSGQDYSLTISSLEYEDMGIYYCLQYDELPPTFGGGTKLEIK	binds
55-8F6 (antibody, V domains shown, mouse antibody purified from ascites) VH: QVQLQQPGAELVRPGASVKLSCKASGYIFTSYWINWVKQRPGQGLEWIGNIYPSDSYTNYNQKFKDKATLTVDKSSSTAYMQLSSPTSEDSAVYYCTRFHYGSSPFDNWGQGTTLTVSS VL: DIQMTQSTSSLSASLGDRVTISCRASQDISHYLNWYQQKPDGTVKLLIYYTSRLHSGVPSRFSGSGSGTDYSLTISNLEQEDFATYFCQQGHTLPRTFGGGTKLEIK	binds
61-6A7 (antibody, V domains shown, mouse antibody purified from ascites) VH: EVQLQQSGAELVRPGALVKLSCKASGFNIKDYYMHWVKRRPEQGLEWIGWIDPENGNTIYDPKFQDKASITADTSSNTAYLQLSSLTSEDTAVYYCAEGLPWYFDYWGQGTTLTVSS VL: QIILTQSPALMSASPGEKVTMTCSASSSVSDMNWYQQKPRSSPTPWIYLTSNLSSGVPDRFSGSGSGTSYSLTISSMEAEDAATYYCQQWSGNPLTFGAGTRLELK	binds
